The following binders are shown together with reported relative MPF (% of chimeric FMC63) values.
- tested-system: T1, human CD19 (human, UniProt P15391 20-556)
- T1 construct: CD19 as expressed on Raji, NALM-6 and SU-DHL-6 cells; also called CD19 antigen; B-cell surface antigen B4
- T1 sequence: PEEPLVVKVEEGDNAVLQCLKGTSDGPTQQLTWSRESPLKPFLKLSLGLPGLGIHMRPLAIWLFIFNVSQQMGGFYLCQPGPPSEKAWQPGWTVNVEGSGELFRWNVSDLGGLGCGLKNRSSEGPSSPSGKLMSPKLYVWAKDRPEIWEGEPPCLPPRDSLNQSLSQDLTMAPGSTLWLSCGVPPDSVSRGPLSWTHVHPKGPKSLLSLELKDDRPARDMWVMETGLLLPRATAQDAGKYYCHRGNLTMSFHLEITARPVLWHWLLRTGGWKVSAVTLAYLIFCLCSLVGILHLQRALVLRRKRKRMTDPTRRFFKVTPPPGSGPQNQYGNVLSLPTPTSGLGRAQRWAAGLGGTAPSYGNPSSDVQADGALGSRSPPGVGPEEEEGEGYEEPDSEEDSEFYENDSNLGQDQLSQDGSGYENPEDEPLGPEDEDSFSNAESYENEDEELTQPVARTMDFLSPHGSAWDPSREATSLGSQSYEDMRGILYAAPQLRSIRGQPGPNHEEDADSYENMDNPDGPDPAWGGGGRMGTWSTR
- method-summary: flow cytometry, NALM-6 cells, MPF vs chimeric FMC63
measure-name: relative MPF (% of chimeric FMC63) (%)

INSERT INTO assay_data (binder, value) VALUES
  ('VH16-G42R/VL43-F71Y (antibody, human IgG1, name in Kabat numbering, V domains shown, substitutions in Kabat numbering) VH: QVQLVQSGGGVVQPGRSLRLSCAASGVSLPDYGVSWVRQAPRKGLEWVAVIWGSETTYYNSALKSRFTISRDNSKNTLYLQMNSLRAEDTAVYYCARHYYYGGSYAMDYWGQGTLVTVSS VL: DIVMTQTPSSLSASVGDRVTITCRASQDISKYLNWYQQKPGKAPKLLIYHTSRLHSGVPSRFSGSGSGTDYTLTISSLQPEDFATYYCQQGNTLPYTFGPGTKVDIKR', 3.97),
  ('VH16/VL43 (antibody, human IgG1, V domains shown) VH: QVQLVQSGGGVVQPGRSLRLSCAASGVSLPDYGVSWVRQAPGKGLEWVAVIWGSETTYYNSALKSRFTISRDNSKNTLYLQMNSLRAEDTAVYYCARHYYYGGSYAMDYWGQGTLVTVSS VL: DIVMTQTPSSLSASVGDRVTITCRASQDISKYLNWYQQKPGKAPKLLIYHTSRLHSGVPSRFSGSGSGTDFTLTISSLQPEDFATYYCQQGNTLPYTFGPGTKVDIKR', 3.29),
  ('VH16-F67L/VL43 (antibody, human IgG1, name in Kabat numbering, V domains shown, substitutions in Kabat numbering) VH: QVQLVQSGGGVVQPGRSLRLSCAASGVSLPDYGVSWVRQAPGKGLEWVAVIWGSETTYYNSALKSRLTISRDNSKNTLYLQMNSLRAEDTAVYYCARHYYYGGSYAMDYWGQGTLVTVSS VL: DIVMTQTPSSLSASVGDRVTITCRASQDISKYLNWYQQKPGKAPKLLIYHTSRLHSGVPSRFSGSGSGTDFTLTISSLQPEDFATYYCQQGNTLPYTFGPGTKVDIKR', 2.4),
  ('VH16-R71K/VL43-F71Y (antibody, human IgG1, name in Kabat numbering, V domains shown, substitutions in Kabat numbering) VH: QVQLVQSGGGVVQPGRSLRLSCAASGVSLPDYGVSWVRQAPGKGLEWVAVIWGSETTYYNSALKSRFTISKDNSKNTLYLQMNSLRAEDTAVYYCARHYYYGGSYAMDYWGQGTLVTVSS VL: DIVMTQTPSSLSASVGDRVTITCRASQDISKYLNWYQQKPGKAPKLLIYHTSRLHSGVPSRFSGSGSGTDYTLTISSLQPEDFATYYCQQGNTLPYTFGPGTKVDIKR', 2.67),
  ('VH16-L78V/VL43-P44V (antibody, human IgG1, name in Kabat numbering, V domains shown, substitutions in Kabat numbering) VH: QVQLVQSGGGVVQPGRSLRLSCAASGVSLPDYGVSWVRQAPGKGLEWVAVIWGSETTYYNSALKSRFTISRDNSKNTVYLQMNSLRAEDTAVYYCARHYYYGGSYAMDYWGQGTLVTVSS VL: DIVMTQTPSSLSASVGDRVTITCRASQDISKYLNWYQQKPGKAVKLLIYHTSRLHSGVPSRFSGSGSGTDFTLTISSLQPEDFATYYCQQGNTLPYTFGPGTKVDIKR', 10.9);
